Assign IC50 to each entry below.
# Target: Tyrosinase (Agaricus bisporus, UniProt O42713)
# Sequence (O42713 whole entry): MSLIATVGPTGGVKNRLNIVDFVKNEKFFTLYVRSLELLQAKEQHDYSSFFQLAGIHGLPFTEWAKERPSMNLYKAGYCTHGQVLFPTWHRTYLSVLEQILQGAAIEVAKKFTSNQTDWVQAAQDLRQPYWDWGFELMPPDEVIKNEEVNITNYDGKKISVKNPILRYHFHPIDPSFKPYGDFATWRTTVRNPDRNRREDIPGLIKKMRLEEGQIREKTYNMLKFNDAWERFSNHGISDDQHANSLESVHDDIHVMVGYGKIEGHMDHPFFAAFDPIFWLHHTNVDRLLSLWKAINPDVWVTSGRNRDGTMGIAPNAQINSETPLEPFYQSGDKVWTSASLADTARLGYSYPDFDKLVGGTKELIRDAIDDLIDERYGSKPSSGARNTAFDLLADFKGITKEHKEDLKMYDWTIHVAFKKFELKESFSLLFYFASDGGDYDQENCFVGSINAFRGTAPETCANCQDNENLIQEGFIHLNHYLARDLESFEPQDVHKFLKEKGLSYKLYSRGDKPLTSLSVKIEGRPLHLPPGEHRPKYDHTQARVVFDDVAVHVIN
Give bare numbers, in µM.

Study these solved cases before continuing.
COc1ccc(NC2=NC(=O)/C(=C/c3cn(-c4ccccc4)nc3-c3ccccc3Cl)S2)c(OC)c1 = 34.1
COc1ccc(NC2=NC(=O)/C(=C/c3cn(-c4ccccc4)nc3-c3ccc(Cl)cc3)S2)c(OC)c1 = 74
COc1ccc(NC2=NC(=O)/C(=C/c3cn(-c4ccccc4)nc3-c3ccc(F)cc3)S2)c(OC)c1 = 104
COc1ccc(NC2=NC(=O)/C(=C/c3cn(-c4ccccc4)nc3-c3ccc(Br)cc3)S2)c(OC)c1 = 131
COc1ccc(-c2nn(-c3ccccc3)cc2/C=C2\SC(Nc3ccc(OC)cc3OC)=NC2=O)cc1 = 114

Read the next record carefully.
Enquiry: Given COc1ccc(NC2=NC(=O)/C(=C/c3cn(-c4ccccc4)nc3-c3cccc(Cl)c3)S2)c(OC)c1 , report its IC50 on Tyrosinase (Agaricus bisporus, UniProt O42713).
Return: 52.6

###

# Target: UniProt O42713
Reported Metric: Ki (µM)
One number for each entry, in µM.

COc1ccc(NC2=NC(=O)/C(=C/c3cn(-c4ccccc4)nc3-c3ccccc3Cl)S2)c(OC)c1 = 29.1
COc1ccc(NC2=NC(=O)/C(=C/c3cn(-c4ccccc4)nc3-c3ccc(Cl)cc3Cl)S2)c(OC)c1 = 16.9

Read the next record carefully.
Enquiry: Dear colleague, please send me the reported Ki for COc1ccc(NC2=NC(=O)/C(=C/c3cn(-c4ccccc4)nc3-c3ccc(Cl)cc3)S2)c(OC)c1 when you can.
Return: 5.7

###

# Target: Tyrosinase (Agaricus bisporus)
# Assay Info: Inhibition of mushroom tyrosinase using L-DOPA as substrate at 200 uM preincubated for 10 mins by spectrophotometric analysis relative to control
Reported Metric: inhibition
Dear colleague, please send the value followed by its unit.

COc1ccc(NC2=NC(=O)/C(=C/c3cn(-c4ccccc4)nc3-c3ccc(Cl)cc3Cl)S2)c(OC)c1 = 52%
COc1ccc(-c2nn(-c3ccccc3)cc2/C=C2\SC(Nc3ccc(OC)cc3OC)=NC2=O)cc1 = 46.8%
COc1ccc(NC2=NC(=O)/C(=C/c3cn(-c4ccccc4)nc3-c3ccc(Br)cc3)S2)c(OC)c1 = 87.9%
COc1ccc(NC2=NC(=O)/C(=C/c3cn(-c4ccccc4)nc3-c3cccc(Cl)c3)S2)c(OC)c1 = 110%
COc1ccc(NC2=NC(=O)/C(=C/c3cn(-c4ccccc4)nc3-c3ccc(Cl)cc3)S2)c(OC)c1 = 38%
COc1ccc(NC2=NC(=O)/C(=C/c3cn(-c4ccccc4)nc3-c3ccc(C)cc3)S2)c(OC)c1 = 13.5%

For each of the items listed, what is its inhibition?
1. COc1ccc(NC2=NC(=O)/C(=C/c3cn(-c4ccccc4)nc3-c3ccccc3Cl)S2)c(OC)c1
2. COc1ccc(NC2=NC(=O)/C(=C/c3cn(-c4ccccc4)nc3-c3ccc(F)cc3)S2)c(OC)c1
3. COc1ccc(NC2=NC(=O)/C(=C/c3cn(-c4ccccc4)nc3-c3ccccc3)S2)c(OC)c1

Return:
1: 126%; 2: 54.2%; 3: 8.03%

Every entry's value here was drawn from ChEMBL document CHEMBL2380275.
